Consider the following binders and their measured Imax % readings.
# Target Of Assay: Human SARS-CoV-2_Wuhan S (SmT1) (SARS-CoV-2 (Wuhan), UniProt P0DTC2 14-1208)
# Protocol Summary: flow cytometry SVNA, VHH-Fc vs biotin-S binding to Vero E6 ACE2
Please give a number only; it is taken to be in %.

{"Binder": "NRCoV2-17 VHH-Fc (Fc fusion, bivalent VHH-Fc) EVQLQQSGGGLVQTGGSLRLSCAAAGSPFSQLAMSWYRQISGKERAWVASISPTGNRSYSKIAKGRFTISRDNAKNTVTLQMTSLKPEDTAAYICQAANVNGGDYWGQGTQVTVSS", "Unit Of Measurement": "%", "Imax %": 88}
{"Binder": "NRCoV2-MRed05 VHH-Fc (Fc fusion, bivalent VHH-Fc) EVQLVESGGGLVQPGGSLRLSCAASGFTLDYYAIGWFRQAPGKEREGVSCISSSDGSTLYADSVKGRFTISRDNAKNTVYLQMNSLKPEDTAVYYCATGPQAYYSGSYYFQCPQAGMDYWGKGTQVTVSS", "Unit Of Measurement": "%", "Imax %": 95}
{"Binder": "NRCoV2-20 VHH-Fc (Fc fusion, bivalent VHH-Fc) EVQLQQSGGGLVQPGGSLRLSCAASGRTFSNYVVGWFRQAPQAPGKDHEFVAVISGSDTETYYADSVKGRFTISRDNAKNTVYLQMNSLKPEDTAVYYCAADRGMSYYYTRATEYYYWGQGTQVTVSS", "Unit Of Measurement": "%", "Imax %": 66}

The record that follows has no Imax % shown yet.
Entry NRCoV2-SR01 VHH-Fc (Fc fusion, bivalent VHH-Fc) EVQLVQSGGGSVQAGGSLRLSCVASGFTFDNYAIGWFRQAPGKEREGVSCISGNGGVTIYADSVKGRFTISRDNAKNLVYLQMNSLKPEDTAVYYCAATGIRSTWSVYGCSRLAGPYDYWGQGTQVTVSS ; Imax % = 59
